test_details: Metabolic stability in mouse liver microsomes (in vitro t1/2)
Format: in vitro ADME
applied_conditions: mouse liver microsomes 0.5 mg/mL, 2 μM compound, % remaining at 60 min
experimental_readout: Mouse microsome % 60 min (%)

[I] CC[C@@](C)(OCc1cc(-c2cccc(OC)c2)n(Cc2ccccc2Cl)n1)C(=O)O [Example 121]
[II] CCOc1ccccc1Cn1nc(COC(C)(C)C(=O)O)cc1-c1cc(OC)cc(OC)c1 [Example 211]
Query: In terms of reported Mouse microsome % 60 min, does I or II have the smaller number? Selection: enter the item's label.
Reply: II
(II: 43%, I: 81%)

---

test_details: Metabolic stability in rat liver microsomes (in vitro t1/2)
Assay type: in vitro ADME
applied_conditions: rat liver microsomes 0.5 mg/mL, 2 μM compound, % remaining at 60 min
Description: Metabolic Stability Assays The following are assays that may be used to evaluate the metabolic stability of compounds of Formula (I) in human, rat, or mouse microsomes. The assays follow a common procedure recited below. 1. […] Peak areas were determined from extracted ion chromatograms. The slope value, k, was determined by linear regression of the natural logarithm of the remaining percentage of the parent drug vs. incubation time curve. […]
experimental_readout: Rat microsome % 60 min (%)

Look over these answered cases.
• CCn1ncc2ccc(-c3cc(COC(C)(C)C(=O)O)nn3-c3ccccc3N3CCC3)cc21 = 91
• CCOc1cc(OCC)cc(-c2cc(COC(C)(C)C(=O)O)nn2-c2ccccc2Cl)c1 = 98
• CCOc1cccc(-n2nc(COC(C)(C)C(=O)O)cc2-c2cc(OC)cc(OC)c2)c1 = 88

[P] CC(C)(OCc1cc(-c2cccc(OCC3CCC3)c2)n(-c2ccccc2Cl)n1)C(=O)O
[Q] CC(C)(OCc1cc(-c2cccc(OC3CC3)c2)n(-c2ccccc2N2CCC2)n1)C(=O)O
Query: In terms of reported Rat microsome % 60 min, does P or Q have the smaller number? Selection: enter the item's label.
Reply: Q
